# System: Perforin-1 (Homo sapiens)
# Measurement Protocol: Inhibition of perforin released from human KHYG-1 NK cells assessed as inhibition of perforin-mediated lysis of human K562 cells at 20 uM by [51Cr] release assay in presence of 10% mouse serum
# Format: cell-based
// values below are reported inhibition
Quote the value and follow it with the unit of measurement.

Some solved cases for reference:
Item under review: "O=C1NC(=S)N/C1=C/c1ccc(-c2ccc3c(c2)COC3=O)s1" . Reported inhibition?
38.9%

Ok, now "O=C1NC(=S)N/C1=C/c1cc(-c2ccc3c(c2)COC3=O)ns1"
26%

Ok, now "O=C1NC(=S)NC(=O)C1=Cc1ccc(-c2ccc3c(c2)COC3=O)s1"
73%

Ok, now "O=C1NC(=S)N/C1=C/c1cnc(-c2ccc3c(c2)COC3=O)s1"
27%

Ok, now "O=C1NC(=S)N/C1=C/c1ccc(-c2ccc3c(c2)COC3=O)o1"
23%

Next:
Item under review: "O=C1NC(=S)N/C1=C/c1cc2ccc(-c3ccc4c(c3)COC4=O)cc2[nH]1" . Reported inhibition?
100%

Ok, now "O=C1NC(=S)N/C1=C/c1csc(-c2ccc3c(c2)COC3=O)n1"
2%

Ok, now "O=C1NC(=O)/C(=C\c2ccc(-c3ccc4c(c3)COC4=O)s2)S1"
12%

Ok, now "O=C1NC(=S)N/C1=C/c1cc2cc(-c3ccc4c(c3)COC4=O)ccc2o1"
35%

Ok, now "O=C1NC(=S)N/C1=C/c1ccc(-c2ccc3c(c2)COC3=O)cc1"
30%

* * *

# System: Perforin-1 (Homo sapiens) (UniProt P14222)
# Sequence (whole entry): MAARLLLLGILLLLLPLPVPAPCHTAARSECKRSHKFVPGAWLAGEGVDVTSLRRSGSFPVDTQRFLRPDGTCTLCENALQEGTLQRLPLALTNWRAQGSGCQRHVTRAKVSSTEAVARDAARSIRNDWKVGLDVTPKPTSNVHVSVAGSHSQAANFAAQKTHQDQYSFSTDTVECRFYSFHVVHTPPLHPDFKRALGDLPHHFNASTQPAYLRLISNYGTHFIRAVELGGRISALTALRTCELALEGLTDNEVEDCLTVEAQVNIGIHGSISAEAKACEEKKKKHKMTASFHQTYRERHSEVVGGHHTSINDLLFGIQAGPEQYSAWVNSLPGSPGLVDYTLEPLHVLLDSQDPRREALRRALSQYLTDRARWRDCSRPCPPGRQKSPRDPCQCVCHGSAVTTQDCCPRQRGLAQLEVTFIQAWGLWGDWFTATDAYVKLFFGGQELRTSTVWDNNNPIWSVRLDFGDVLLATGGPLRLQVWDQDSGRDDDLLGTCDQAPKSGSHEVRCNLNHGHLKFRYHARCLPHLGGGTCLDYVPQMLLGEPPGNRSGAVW
# Measurement Protocol: Inhibition of perforin released from human KHYG-1 NK cells assessed as inhibition of perforin-mediated lysis of human K562 cells at 20 uM by [51Cr] release assay in presence of 10% mouse serum
# Format: cell-based
// values below are reported inhibition
Express your answer in %, writing the number without its unit.

Some solved cases for reference:
Item under review: "O=C1NC(=S)N/C1=C/c1cc2cc(-c3ccc4c(c3)COC4=O)ccc2s1" . Reported inhibition?
17

Ok, now "Cc1cc2c(c(=S)[nH]1)C(=O)OC2=Cc1csc2ccccc12"
10.3

Ok, now "O=C1NC(=S)N/C1=C/c1cc2ccc(-c3ccc4c(c3)COC4=O)cc2s1"
25

Ok, now "O=C1NC(=S)N/C1=C/c1ccc2cc(-c3ccc4c(c3)COC4=O)ccc2n1"
35

Ok, now "O=C1NC(=S)N/C1=C/c1nc(-c2ccc3c(c2)COC3=O)cs1"
13

Next:
Item under review: "O=C1NC(=O)C(=Cc2ccc(-c3ccc4c(c3)COC4=O)s2)C(=O)N1" . Reported inhibition?
10

Ok, now "O=C1NC(=S)N/C1=C/c1cc(-c2ccc3c(c2)COC3=O)no1"
23

* * *

// values below are reported viability at 20 µM
# Measurement Protocol: Cytotoxicity against human KHYG-1 NK cells assessed as cell viability at 20 uM after 18 to 24 hrs by trypan blue assay
# Format: cell-based
# Recorded Conditions: read-out: Activity
Express your answer in %, writing the number without its unit.

Item under review: "O=C1NC(=S)N/C1=C/c1cc(-c2ccc3c(c2)COC3=O)no1" . Reported viability at 20 µM?
63

Ok, now "O=C1NC(=S)N/C1=C/c1cc(-c2ccc3c(c2)COC3=O)cs1"
55

Ok, now "O=C1NC(=S)N/C1=C/c1cnc(-c2ccc3c(c2)COC3=O)s1"
68

Ok, now "O=C1NC(=S)N/C1=C/c1ccc(-c2ccc3c(c2)COC3=O)cc1"
59

Ok, now "O=C1NC(=O)/C(=C\c2ccc(-c3ccc4c(c3)COC4=O)s2)S1"
19

Ok, now "O=C1NC(=S)N/C1=C/c1ccc2ccc(-c3ccc4c(c3)COC4=O)cc2n1"
59

Next:
Item under review: "O=C1NC(=S)N/C1=C/c1ccc(-c2ccc3c(c2)COC3=O)o1" . Reported viability at 20 µM?
66

Ok, now "O=C1NC(=S)N/C1=C/c1ccc(-c2ccc3c(c2)COC3=O)cn1"
92

Ok, now "O=C1NC(=S)N/C1=C/c1nc(-c2ccc3c(c2)COC3=O)cs1"
91

Ok, now "Cc1cc2c(c(=S)[nH]1)C(=O)OC2=Cc1csc2ccccc12"
77
